Field: Kd. Provide a value for each of the molecules that follow.
target: human transferrin receptor (hTfR) (Homo sapiens, UniProt P02786)
Construct: made in house
Sequence (P02786 89-760 limits assumed): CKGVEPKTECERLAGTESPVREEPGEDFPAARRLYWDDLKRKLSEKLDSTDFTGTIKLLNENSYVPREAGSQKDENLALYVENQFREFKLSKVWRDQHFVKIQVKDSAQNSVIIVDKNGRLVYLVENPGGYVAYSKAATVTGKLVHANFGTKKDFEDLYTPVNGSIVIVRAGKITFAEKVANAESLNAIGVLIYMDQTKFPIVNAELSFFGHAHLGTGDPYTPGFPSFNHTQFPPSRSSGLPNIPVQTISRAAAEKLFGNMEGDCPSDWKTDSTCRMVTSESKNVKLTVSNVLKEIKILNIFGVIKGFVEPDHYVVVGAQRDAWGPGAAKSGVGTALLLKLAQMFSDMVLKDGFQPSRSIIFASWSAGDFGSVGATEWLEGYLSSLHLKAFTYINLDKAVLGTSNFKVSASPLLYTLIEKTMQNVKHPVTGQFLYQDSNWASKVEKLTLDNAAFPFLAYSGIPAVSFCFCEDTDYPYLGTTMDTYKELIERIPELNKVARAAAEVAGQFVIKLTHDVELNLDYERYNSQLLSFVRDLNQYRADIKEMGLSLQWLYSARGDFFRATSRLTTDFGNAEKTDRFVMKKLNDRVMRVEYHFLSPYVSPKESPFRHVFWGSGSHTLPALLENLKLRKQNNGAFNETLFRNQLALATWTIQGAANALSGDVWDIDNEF
protocol summary: Evaluation of molecular interaction between transferrin receptor (hTfR) and peptide using surface plasmon resonance (SPR)
Format: binding
test parameters: surface plasmon resonance, binding to hTfR; KD class symbol; read-out: SPR (KD value)

Q: // Input: CC[C@H](C)[C@@H]1NC(=O)[C@H](Cc2ccc(OC)cc2)NC(=O)[C@H](Cc2ccc(O)cc2)NC(=O)[C@H](CC(N)=O)NC(=O)[C@H](Cc2c[nH]c3ccc(Cl)cc23)NC(=O)[C@H](C(C)C)NC(=O)[C@H](Cc2ccc(F)cc2)N(C)C(=O)[C@H](C(C)C)NC(=O)[C@H](C)NC(=O)CSC[C@@H](C(=O)NCCOCCOCCOCCOCCC(N)=O)NC(=O)[C@H](Cc2ccc(O)cc2)N(C)C(=O)[C@H](Cc2ccccc2)NC(=O)[C@@H](CCCNC(=N)N)NC(=O)[C@H](CCCNC(=N)N)N(C)C(=O)[C@H]([C@@H](C)CC)NC1=O [compound 27] . Output its Kd only.
Result: 1 to 100 nM

Q: // Input: CC[C@H](C)[C@@H]1NC(=O)[C@H](Cc2ccc(O)cc2)NC(=O)[C@H](Cc2ccc(O)cc2)NC(=O)[C@H](CC(N)=O)NC(=O)[C@H](Cc2c[nH]c3ccccc23)NC(=O)[C@H](C(C)C)NC(=O)[C@H](Cc2ccccc2)N(C)C(=O)[C@H](C(C)C)NC(=O)[C@H](C)NC(=O)CSC[C@@H](C(N)=O)NC(=O)[C@H](Cc2ccc(O)cc2)N(C)C(=O)[C@H](Cc2ccccc2)NC(=O)[C@H](CCCCNC(=O)CCOCCOCCOCCOC)NC(=O)[C@H](CCCNC(=N)N)NC(=O)[C@H]([C@@H](C)CC)NC1=O [compound 2] . Output its Kd only.
Result: 1 to 100 nM
